Below, each entry is listed with its recorded clearance.
method description: In vivo pharmacokinetic experiments (compound clearance in rats)
details: rat; male rats, IV administration, plasma clearance; read-out: PK (CLp, rat)

Recorded results for 2 molecules are shown here.
{"molecule": "O=S(=O)(Nc1ccncn1)c1cc2c(cc1F)[C@@H](N1CC[C@@](O)(C(F)(F)F)C[C@H]1c1ccc(F)cc1)CCO2 [Example 2]", "clearance": "< 30 mL/min/kg"}
{"molecule": "O=S(=O)(Nc1ncns1)c1cc2c(cc1F)[C@@H](N1CC[C@@H](C(F)(F)F)C[C@H]1c1ccccn1)CCO2 [B]", "clearance": "> 60 mL/min/kg"}

[ask] Tell me the measured clearance of O=S(=O)(Nc1ncns1)c1ccc2c(c1)OCC[C@@H]2N1CC[C@H](C(F)F)C[C@@H]1c1ccc(F)cc1 [E] , please.
[reply] > 60 mL/min/kg

[ask] Using the record for O=S(=O)(Nc1ccncn1)c1cc2c(cc1F)[C@@H](N1CC[C@@H](OC(F)F)C[C@H]1c1ccc(F)cc1)CCO2 [Example 3] , report its clearance.
[reply] < 30 mL/min/kg

[ask] Fill in: clearance of CS(=O)(=O)[C@@H]1CCN([C@H]2CCOc3cc(S(=O)(=O)Nc4ncns4)ccc32)[C@H](c2ccc(F)cc2)C1 [F] is ___
[reply] > 60 mL/min/kg

[ask] Suppose we examine the molecule C[C@@H]1C[C@H](c2cccc(C(F)(F)F)c2)CCN1[C@H]1CCOc2cc(S(=O)(=O)Nc3ccncn3)c(F)cc21 [Example 4] ; what clearance value has been reported?
[reply] < 30 mL/min/kg

[ask] Given O=S(=O)(Nc1ncns1)c1ccc2c(c1)OCC[C@@H]2N1CC[C@@H](C(F)(F)F)C[C@H]1c1ccc(F)cc1 [C] , state its recorded clearance.
[reply] > 60 mL/min/kg
